Test system: Proteus vulgaris
Assay: Antimicrobial activity against Proteus vulgaris ATCC 6896 by twofold broth dilution method
Type: functional
Reported MIC values are given for each entry in this list.
Report only the number, with the unit µg/mL understood.

Would you please look over these solved cases?
Cc1cc(=O)oc2cc(OCCCCCBr)ccc12	512
Cc1cc(=O)oc2cc(OCCCCn3cncn3)cc(OCCCCn3cncn3)c12.Cl	2
Cc1cc(=O)oc2cc(OCCCCCCBr)ccc12	256

Q: Give the reported MIC for Cc1cc(=O)oc2cc(OCc3ccc(Cn4cncn4)cc3)ccc12 (system: Proteus vulgaris).
Result: 64

Q: Give the reported MIC for Cc1cc(=O)oc2cc(O)cc(O)c12 [5,7-DIHYDROXY-4-METHYLCOUMARIN] (system: Proteus vulgaris).
Result: 128

Q: Give the reported MIC for O=C(N[C@H](CO)[C@H](O)c1ccc([N+](=O)[O-])cc1)C(Cl)Cl [CHLORAMPHENICOL] (system: Proteus vulgaris).
Result: 8
